# ASSAY PROCEDURE: chemical genetic growth profiling, strain panel (AID 1159580);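 note: tested at 20 µM; growth read once vehicle control cultures reached saturation at 30 °C; 1 = growth at the plate median or of vehicle wells; lower values mean less growth of the strain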
# EXPERIMENTAL SETUP: S. cerevisiae deletion strains, growth OD, locus YNL222W, strain SSU72
Among all 5,500 compounds or so, about 2,000 (36%) were called active. Not shown: some 18% with an inconclusive outcome. Cut-off read from the data, not from the text of the source: active = normalized growth mostly below about 0.91 (no sharp cut-off); inconclusive = no clear call, values can overlap the other calls; inactive = mostly above about 0.92. The list shows a part of the results.
Write down one outcome, taken from active, inactive

Would you please look over these solved cases?
| COMPOUND | LABEL |
| --- | --- |
| COC(=O)/C=C1/OC(c2ccc(OC)cc2)=CC1=O | active |
| Clc1cccc(Cl)c1C1CC(c2ccccc2)=Nc2ccccc2S1 (stereo not given) | inactive |
| N#C/C(N=Cc1cc(Cl)cc(Cl)c1O)=C(\C#N)N=Cc1cc(Cl)cc(Cl)c1O | inactive |
| FC(F)(F)Sc1ccc(OCc2n[nH]c(=S)n2-c2ccccc2)cc1 | inactive |
| CN(C)/C=C1\CSc2ccc(Cl)cc2C1=O | inactive |

Could you check what this test reported for Cc1ccc(OS(=O)(=O)c2c(Cl)sc(Cl)c2Br)c([N+](=O)[O-])n1 ?
inactive

---

# ASSAY PROCEDURE: chemical genetic growth profiling, strain panel (AID 1159580)
# EXPERIMENTAL SETUP: S. cerevisiae deletion strains, growth OD, locus YAL030W, strain snc1, active compounds read low
About 2,000 (36%) of roughly 5,500 compounds were called active. Another 18% or so got no clear call; they are omitted. This is one part of the list.
PARAMETER MEASURED: normalized growth
// print number alone

Past entries and their recorded results:
| COMPOUND | normalized growth |
| --- | --- |
| O=C(O)C1=CC(=C(c2ccc(O)c(C(=O)O)c2)c2ccc(O)c(C(=O)O)c2)C=CC1=O | 0.986 |
| Cc1cc(N)c2ccccc2[n+]1CCCCCCCCCC[n+]1c(C)cc(N)c2ccccc21 | 0.0625 |
| CCc1ccc2c(O)c3c(cc2c1C(=O)OC)C(=O)c1c(O)ccc(O)c1C3=O | 0.992 |

We next turn to a different compound, shown below.
Recorded normalized growth for C[C@H]1[C@H](C)CC[C@]2(C(=O)O)CC[C@]3(C)C(=CCC4[C@@]5(C)C[C@@H](O)[C@H](O)[C@@](C)(CO)C5CC[C@]43C)[C@H]12 (some centres undefined) , please?
1.02

---

# ASSAY PROCEDURE: chemical genetic growth profiling, strain panel (AID 1159580)
# EXPERIMENTAL SETUP: S. cerevisiae deletion strains, growth OD, locus YJL154C, strain vps35
The whole screen tested about 5,500 compounds, of which about 2,000 (36%) were called active. Another 18% or so got no clear call; they are omitted. No stated cut-off is given here; in the data, active means normalized growth mostly below about 0.91 (no sharp cut-off); inconclusive means no clear call, values can overlap the other calls; inactive means mostly above about 0.92. Some of the results follow.
Select the correct class. Options are active, inactive and nothing else.

| COMPOUND | LABEL |
| --- | --- |
| O=c1c2cc(O)c(O)cc2oc2cc(O)c(C3O[C@H](CO)[C@H](O)[C@@H](O)[C@H]3O)c(O)c12 (stereo partly specified) | inactive |
| COc1ccc(-c2cc(=O)c3c(O)c(OC)c(OC)c(OC)c3o2)cc1OC | inactive |

Recorded call for COC(=O)[C@H]1[C@H]2C[C@H]3c4[nH]c5cc(OC)ccc5c4CCN3C[C@H]2C[C@@H](OC(=O)c2cc(OC)c(OC)c(OC)c2)[C@@H]1OC ?
inactive

Entry NCCCN : call = ?
inactive

Which result was noted for this compound in the test: CC(C)c1cccc(C(C)C)c1O
inactive

---

// values below are reported normalized growth
# ASSAY PROCEDURE: chemical genetic growth profiling, strain panel (AID 1159580);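 note: tested at 20 µM; growth read once vehicle control cultures reached saturation at 30 °C; 1 = growth at the plate median or of vehicle wells; lower values mean less growth of the strain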
# EXPERIMENTAL SETUP: S. cerevisiae deletion strains, growth OD, locus YMR125W, strain sto1, active compounds read low
In all, about 5,500 compounds went through this assay and about 2,000 (36%) were called active. Another 18% or so got no clear call; they are omitted. The list shows a part of the results.
Reply briefly: the number, and no unit.

// below: answered compounds
| COMPOUND | QUANTITATIVE READOUT |
| --- | --- |
| NC[C@H]1O[C@H](O[C@H]2[C@H](O)[C@@H](O[C@H]3O[C@H](CO)[C@@H](O)[C@H](N)[C@H]3O)[C@H](N)C[C@@H]2N)[C@H](N)[C@@H](O)[C@@H]1O | 1.01 |
| CC(C)(C)NCC(O)COc1cccc2c1CCCC2=O (stereo not drawn) | 0.958 |
| COC(=O)NC(=S)Nc1ccccc1NC(=S)NC(=O)OC | 0.974 |
| COC(=O)N/N=C\c1c[n+]([O-])c2ccccc2[n+]1[O-] | 1.02 |
| O=C(Oc1cccc2cccnc12)c1ccccc1 | 0.961 |
| CN(C)CC[C@H](c1ccc(Cl)cc1)c1ccccn1 | 0.997 |
| COC(=O)CC1C(C)(C)C(OC(C)=O)[C@@H]2[C@@H](OC(C)=O)[C@]34O[C@@]2(O)[C@]1(C)C3CC[C@]1(C)C4=CC(=O)O[C@H]1c1ccoc1 (stereo partly drawn) | 1.02 |

We next turn to a different compound, shown below.
Field request: normalized growth | item: C[C@H]1[C@H](C)CC[C@]2(C(=O)O)CC[C@]3(C)C(=CCC4[C@@]5(C)C[C@@H](O)[C@H](O)[C@@](C)(CO)C5[C@H](O)C[C@]43C)[C@H]12 (stereo partly drawn)
0.966

---

# ASSAY PROCEDURE: chemical genetic growth profiling, strain panel (AID 1159580);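 note: tested at 20 µM; growth read once vehicle control cultures reached saturation at 30 °C; 1 = growth at the plate median or of vehicle wells; lower values mean less growth of the strain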
# EXPERIMENTAL SETUP: S. cerevisiae deletion strains, growth OD, locus YPL240C, strain hsp82, active compounds read low
In all, about 5,500 compounds went through this assay and about 2,000 (36%) were called active. Not shown: some 18% with an inconclusive outcome. The list shows a part of the results.
PARAMETER MEASURED: normalized growth

| COMPOUND | RESULT |
| --- | --- |
| C=CCSSSCC=C | 0.995 (inactive) |
| COC(=O)CC1C(C)(C)C(OC(C)=O)[C@@H]2[C@@H](OC(C)=O)[C@]34O[C@@]2(O)[C@]1(C)C3CC[C@]1(C)C4=CC(=O)O[C@H]1c1ccoc1 (some centres not stated) | 1.01 (inactive) |

May I ask what normalized growth has been recorded for C=CCSC[C@@H](N)C(=O)O ?
0.999 (inactive)

normalized growth lookup needed for C/C=C/CC(C)C(O)C1C(=O)NC(CC)C(=O)N(C)CC(=O)N(C)C(CC(C)C)C(=O)NC(C(C)C)C(=O)N(C)C(CC(C)C)C(=O)NC(C)C(=O)NC(C)C(=O)N(C)C(CC(C)C)C(=O)N(C)C(CC(C)C)C(=O)N(C)C(C(C)C)C(=O)N1C (configuration not stated) , thanks.
1.02 (inactive)

For the compound shown here, C=CCSSCC=C , give the reported normalized growth.
1.03 (inactive)

For COP(N)(=O)SC (configuration not stated) , what is its reported normalized growth?
1 (inactive)

Look at this compound and give its reported normalized growth. CO[C@@H]1[C@@H](OC(N)=O)[C@@H](O)[C@H](Oc2ccc3c(O)c(NC(=O)c4ccc(O)c(CC=C(C)C)c4)c(=O)oc3c2C)OC1(C)C
1.02 (inactive)

What measured normalized growth goes with CCCCCC(O)C1C(=O)OC(C)C(O)/C=C/C=C/C=C/C=C/C=C(\C)C(O)CC(O)CC(O)CC(O)CC(O)CC(O)CC1O (configuration not stated) ?
1.02 (inactive)

For the compound CSc1nc(NC(C)C)nc(NC(C)C)n1 , what normalized growth is on record?
0.966 (inactive)

Fill in: normalized growth of CC(C)Nc1nc(Cl)nc(NC(C)C)n1 is ___
1.01 (inactive)

Which normalized growth value is on record for COc1ccccc1N1CCN(CCCNc2cc(=O)n(C)c(=O)n2C)CC1 ?
1.03 (inactive)

Field request: normalized growth | item: COc1nc(NC(C)C)nc(NC(C)C)n1
1.01 (inactive)

---

Quick list: normalized growth per entry.
# ASSAY PROCEDURE: chemical genetic growth profiling, strain panel (AID 1159580);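 note: tested at 20 µM; growth read once vehicle control cultures reached saturation at 30 °C; 1 = growth at the plate median or of vehicle wells; lower values mean less growth of the strain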
# EXPERIMENTAL SETUP: S. cerevisiae deletion strains, growth OD, locus YMR129W, active compounds read low
In all, about 5,500 compounds went through this assay and about 2,000 (36%) were called active. About 18% were inconclusive and are not listed. This is one part of the list.
Simply state the number, no unit and no words.

Example molecules with recorded normalized growth:
| MOLECULE | normalized growth |
| --- | --- |
| CC(=O)N1CCN(c2ccc(OCC3CO[C@](Cn4ccnc4)(c4ccc(Cl)cc4Cl)O3)cc2)CC1 (stereo not given in full) | 0.0847 |
| CC(=O)Oc1ccccc1C(=O)Oc1ccccc1C(=O)O | 0.997 |
| C[C@@H]1CCC2[C@](C)(CO)[C@@H](O)CC[C@]2(C)[C@@]12CC[C@@](CO)(CCO)O2 (stereo not given in full) | 0.986 |
| CCCc1nn(C)c2c(=O)[nH]c(-c3cc(S(=O)(=O)N4CCN(C)CC4)ccc3OCC)nc12 | 0.974 |

Would you kindly look at the next entry?
Any idea what its normalized growth is? The molecule is COc1cc(C(=O)N2CCOCC2)cc(OC)c1OC
0.982
